- measured on: T1, human PD-L1 over-expressed on HEK293E cells (human, UniProt Q9NZQ7 19-290)
- T1 construct: whole, on cells; also called human PD-L1 (NM_014143.2)
- procedure details: flow cytometry on HEK293E/PD-L1 cells, FITC anti-human IgG, serial dilutions; fit table
property label: Kd (nM)
Give bare numbers, in nM.

Exercise: What does the record list as Kd for PD-L1-16E12 (WT/kappa) (antibody, V domains shown, also called PD-L1-16E12-Kappa) VH: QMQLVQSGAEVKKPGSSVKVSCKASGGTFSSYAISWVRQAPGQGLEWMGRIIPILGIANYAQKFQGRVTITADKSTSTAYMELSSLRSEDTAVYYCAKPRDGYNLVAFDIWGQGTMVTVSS VL: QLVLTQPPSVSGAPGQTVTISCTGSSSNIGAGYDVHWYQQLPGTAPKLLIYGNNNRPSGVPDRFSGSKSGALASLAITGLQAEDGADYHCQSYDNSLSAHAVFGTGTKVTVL ?
Key: 4

# credit: patent US20190322750A1
